System: Escherichia coli
assayProtocol: Antibacterial activity against Escherichia coli IH3080 by Etest method in presence of 2 ug/ml NAB7062
Type: functional
MIC values for the compounds below.
Write the number in µg/mL without appending the unit.

CO[C@H]1/C=C/O[C@@]2(C)Oc3c(C)c(O)c4c(O)c(c(/C=N/N5CCN(C)CC5)c(O)c4c3C2=O)NC(=O)/C(C)=C\C=C\[C@H](C)[C@H](O)[C@@H](C)[C@@H](O)[C@@H](C)[C@H](OC(C)=O)[C@@H]1C [RIFAMPIN] :: 0.19

(Q) // MIC lookup, key: C/C(=C\C(=O)OCCCCCCCCC(=O)O)C[C@@H]1OC[C@H](C[C@@H]2O[C@H]2[C@@H](C)[C@H](C)O)[C@@H](O)[C@H]1O [MUPIROCIN]
(A) 12

(Q) // MIC lookup, key: CC[C@H]1OC(=O)[C@H](C)[C@@H](O[C@H]2C[C@@](C)(OC)[C@@H](O)[C@H](C)O2)[C@H](C)[C@@H](O[C@@H]2O[C@H](C)C[C@H](N(C)C)[C@H]2O)[C@](C)(O)C[C@@H](C)C(=O)[C@H](C)[C@@H](O)[C@]1(C)O [ERYTHROMYCIN]
(A) 2

(Q) // MIC lookup, key: CC[C@H]1OC(=O)[C@H](C)[C@@H](O[C@H]2C[C@@](C)(OC)[C@@H](O)[C@H](C)O2)[C@H](C)[C@@H](O[C@@H]2O[C@H](C)C[C@H](N(C)C)[C@H]2O)[C@](C)(O)C[C@@H](C)CN(C)[C@H](C)[C@@H](O)[C@]1(C)O [AZITHROMYCIN]
(A) 0.19

(Q) // MIC lookup, key: CC[C@H]1OC(=O)[C@H](C)[C@@H](O[C@H]2C[C@@](C)(OC)[C@@H](O)[C@H](C)O2)[C@H](C)[C@@H](O[C@@H]2O[C@H](C)C[C@H](N(C)C)[C@H]2O)[C@](C)(OC)C[C@@H](C)C(=O)[C@H](C)[C@@H](O)[C@]1(C)O [CLARITHROMYCIN]
(A) 0.25

====

assayProtocol: Inhibition of [3H]gentamicin binding to brush border membrane of renal cortex
IC50 values for the sequences below.
Write the number in µM without appending the unit.

(Q) // IC50 lookup, key: `GENTAMICIN`
(A) 90.2

(Q) // IC50 lookup, key: POLYMYXIN B
(A) 39.3

====

Tested on: Acinetobacter baumannii
assayProtocol: Antibacterial activity against Acinetobacter baumannii F264 by Etest method in presence of […] NAB739
Format: functional
MIC values for the compounds below.
Write the number in µg/mL without appending the unit.

CC(=O)O[C@H]1C[C@@]2(C)[C@@H](C[C@@H](O)[C@H]3[C@@]4(C)CC[C@@H](O)[C@@H](C)[C@@H]4CC[C@@]32C)/C1=C(\CCC=C(C)C)C(=O)O :: 12

(Q) // MIC lookup, key: `CN[C@H](CC(C)C)C(=O)N[C@H]1C(=O)N[C@@H](CC(N)=O)C(=O)N[C@H]2C(=O)N[C@H]3C(=O)N[C@H](C(=O)N[C@H](C(=O)O)c4cc(O)cc(O)c4-c4cc3ccc4O)[C@H](O)c3ccc(c(Cl)c3)Oc3cc2cc(c3O[C@@H]2O[C@H](CO)[C@@H](O)[C@H](O)[C@H]2O[C@H]2C[C@](C)(N)[C@H](O)[C@H](C)O2)Oc2ccc(cc2Cl)[C@H]1O`
(A) 16

(Q) // MIC lookup, key: `CO[C@H]1/C=C/O[C@@]2(C)Oc3c(C)c(O)c4c(O)c(c(/C=N/N5CCN(C)CC5)c(O)c4c3C2=O)NC(=O)/C(C)=C\C=C\[C@H](C)[C@H](O)[C@@H](C)[C@@H](O)[C@@H](C)[C@H](OC(C)=O)[C@@H]1C`
(A) 0.38

(Q) // MIC lookup, key: `C[C@@H](O)[C@H]1C(=O)N2C(C(=O)O)=C(S[C@@H]3CN[C@H](C(=O)N(C)C)C3)[C@H](C)[C@H]12`
(A) 6

(Q) // MIC lookup, key: `CC[C@H]1OC(=O)[C@H](C)[C@@H](O[C@H]2C[C@@](C)(OC)[C@@H](O)[C@H](C)O2)[C@H](C)[C@@H](O[C@@H]2O[C@H](C)C[C@H](N(C)C)[C@H]2O)[C@](C)(OC)C[C@@H](C)C(=O)[C@H](C)[C@@H](O)[C@]1(C)O`
(A) 1.5
